- target_or_test_system: T1, recombinant human CLL-1 extracellular domain (ECD, amino acids 65-265) fused to an N-terminal Flag (human, UniProt Q5QGZ9 65-265)
- T1 construct: The construct and the K244Q SNP are stated for the immunogen; they are not written as a piece; also called huCLL-1-Flag; huCLL-1
- T1 chain: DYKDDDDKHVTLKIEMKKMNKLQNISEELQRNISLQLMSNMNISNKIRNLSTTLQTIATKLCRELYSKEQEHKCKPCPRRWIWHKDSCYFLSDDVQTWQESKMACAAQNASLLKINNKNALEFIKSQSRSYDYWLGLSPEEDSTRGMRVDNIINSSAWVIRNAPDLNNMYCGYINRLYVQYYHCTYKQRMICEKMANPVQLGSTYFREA
- test_method_notes: SPR (Biacore T200), IgG captured by anti-human Fc, human CLL-1 as analyte
attribute_measured: Kd (nM)
Unit nM implied. Number only.

Given 21C9.L2H3 (antibody, V domains shown, humanized, assessed in the form of an IgG; also called humanized 21C9.L2H3; h21C9) VH: EVQLVQSGAEVKKPGASVKVSCKASGYTFTDYYLDWVRQAPGQGLEWIGRVNPYNGGTIYNQKFKGRVTLTRDTSTSTAYLELSSLRSEDTAVYYCARDHYRYDPLLDYWGQGTLVTVSS VL: DIQMTQSPSSLSASVGDRVTITCKASQDVSTAVAWFQQKPGKAPKLLIYSPSYRYTGVPSRFSGSGSGTDFTLTISSLQPEDFATYYCQQLYSTPYTFGQGTKVEIK , respond with its Kd.
9.79
